# System: Wnt5a (protein binding on small-molecule microarray)
# protocol: Wnt5a binders on small-molecule microarray, primary screen, biophysical, 635/667 nm fluorescence (AID 1142);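 also: fluorescence read at 667 nm with signal to noise per printed feature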
# studyConditions: 635 nm fluorescence, higher = more signal
composite z-score below 0.1 gives 0; composite z-score at or above it gives 1.

Example entries begin here.
COC(=O)[C@H]1N=C(c2ccc(OCCCO)cc2)O[C@H]1c1ccccc1N=[N+]=[N-]; 1
COC(=O)C(CC#Cc1ccc2c(c1)[C@]1(C(=O)N2)[C@H](c2ccc(OCCO)cc2)N2[C@H](c3ccccc3)[C@H](c3ccccc3)OC(=O)[C@H]2[C@@H]1C(N)=O)C(=O)OC; 0
C=C(COC)/C(=C/C[C@@H](OC(=O)c1ccncc1)c1ccccc1OCCO)c1cnc2ccccc2c1; 1
COc1ccc(C(=O)Nc2cccc(CN3C(=O)[C@]4(O[C@H](CC(=O)N(CCO)Cc5ccccc5)[C@@H]([Si](C)(C)c5ccc(OC)cc5)[C@@H]4C)c4ccccc43)c2)cc1; 1
Cc1ccc(S(=O)(=O)N2[C@@H](c3ccccc3)C(C(=O)O)=CC[C@H]2c2ccc(F)cc2)cc1; 1

Lab note: next molecule to report on.
input: Check this molecule for composite z-score at or above 0.1: C=C(COC)C(=O)CC[C@H](OC(C)=O)c1ccccc1OCCO
output: 0

---

# testedTarget: Follistatin-related protein 3 (Homo sapiens) (UniProt O95633)
# Sequence (O95633 whole entry, looked up): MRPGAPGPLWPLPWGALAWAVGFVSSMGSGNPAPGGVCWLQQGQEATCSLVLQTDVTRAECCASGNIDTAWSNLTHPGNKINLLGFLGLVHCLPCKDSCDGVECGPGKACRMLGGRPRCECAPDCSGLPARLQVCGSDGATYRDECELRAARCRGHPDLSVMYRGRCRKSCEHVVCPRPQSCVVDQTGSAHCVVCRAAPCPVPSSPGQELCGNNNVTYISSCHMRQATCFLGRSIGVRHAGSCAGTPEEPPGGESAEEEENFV
# protocol: FSTL3 binders on small-molecule microarrays, primary screen, biochemical, small-molecule microarray, 635 nm fluorescence (AID 1105);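 also: score merges emission near 667 nm and signal to noise per printed spot across three slides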
# studyConditions: FSTL3 binding, higher = more signal
Consider the following compounds and their measured composite z-score readings.
Number only, no unit.

C[C@]12C(=O)N(CCO)[C@@H]3C(=O)N(c4ccc(Cl)cc4)CC=CC31O[C@@H]1/C=C\CCCOC(=O)C12 (some centres undefined); -1.03
CCCCCCCCCCC(O)C1C=CC2C(=O)N(C)C(=O)C2N1Nc1ccccc1 (centres undefined); -1.54
C=C(COC)C(=O)CC[C@H](OC(C)=O)c1ccccc1OCCO; -0.262

input: Fill blank: measured composite z-score of the compound COc1ccc(C#Cc2ccc3c(c2)[C@]2(C(=O)N3)[C@H](c3ccccc3OCCO)N3[C@H](c4ccccc4)[C@H](c4ccccc4)OC(=O)[C@H]3[C@@H]2C(=O)NC[C@H](O)c2ccccc2)cc1 is ____.
output: 1.34

---

# testedTarget: Epidermal growth factor receptor (Homo sapiens)
# protocol: EGFR binders on small-molecule microarrays, primary screen, biochemical, small-molecule microarray, 635 nm fluorescence (AID 1104);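 also: score merges 667 nm emission intensity with spot signal to noise over triplicate slides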
# studyConditions: EGFR binding, higher = more signal
Rule: composite z-score under 0.1 gives Condition not met, otherwise Condition met.

input: Is the recorded value of composite z-score equal to or greater than 0.1 for this compound? C=CC[C@@]1(C(=O)NCCCOC)N=C(c2ccc(OCCCO)cc2)O[C@@H]1c1ccccc1CN=[N+]=[N-]
output: Condition not met

input: Check if composite z-score >= 0.1 (inclusive). Item: C=CCNC(=O)[C@H]1[C@@H]2C(=O)O[C@@H](c3ccccc3)[C@@H](c3ccccc3)N2[C@@H](c2ccc(OCCO)cc2)[C@]12C(=O)N(C(=O)OCCOC)c1ccc(C#CCNC(N)=O)cc12
output: Condition met

input: Please check the record COc1ccc(C#Cc2ccc3c(c2)[C@]2(C(=O)N3)[C@H](c3ccccc3OCCO)N3[C@H](c4ccccc4)[C@H](c4ccccc4)OC(=O)[C@H]3[C@@H]2C(=O)NC[C@H](O)c2ccccc2)cc1 and state if its composite z-score is at or above 0.1.
output: Condition met

input: Kindly determine if composite z-score recorded for CC[C@@H](O[Si](C#C[Si](C(C)C)(C(C)C)C(C)C)(C(C)C)C(C)C)c1cn([C@H](C)c2ccccc2)nn1 is above or exactly 0.1.
output: Condition met

input: I'd appreciate it if you could say whether COc1ccc(C(=O)Nc2ccc(CN3C(=O)[C@]4(O[C@H](CC(=O)N(CCO)Cc5ccccc5)[C@@H]([Si](C)(C)c5ccc(OC)cc5)[C@@H]4C)c4ccccc43)cc2)cc1 has composite z-score at least equal to 0.1.
output: Condition met

input: Determine whether this compound has composite z-score no lower than 0.1: C=C(COC)C(=O)CC[C@@H](OC(=O)c1ccccc1-c1ccccc1C(=O)O)c1ccccc1OCCO
output: Condition not met

input: Determine whether measured composite z-score meets or exceeds 0.1 for C=CCN1C(=O)[C@]2(O[C@H](CCO)[C@@H]([Si](C)(C)c3ccc(OC)cc3)[C@@H]2C)c2cc(N3C(=O)c4ccccc4Oc4ccccc43)ccc21
output: Condition not met

input: Does the compound COCCCNC(=O)[C@]1(Cc2ccccc2N=[N+]=[N-])N=C(c2ccc(OCCCO)cc2)O[C@@H]1c1ccccc1 have recorded composite z-score that is 0.1 or more?
output: Condition not met

input: Check if composite z-score >= 0.1 (inclusive). Item: COC(=O)[C@@]1(Cc2ccc(F)cc2)[C@H]2c3cc(C(=O)N4CCCC4)n(CCc4c[nH]c5cc(F)ccc45)c3C[C@H]2CN1C(=O)c1ccccc1
output: Condition met

input: Is composite z-score at least 0.1? Consider C=CCNC(=O)[C@H]1[C@@H]2C(=O)O[C@@H](c3ccccc3)[C@@H](c3ccccc3)N2[C@@H](c2ccc(OCCO)cc2)[C@]12C(=O)N(C(=O)OCCOC)c1ccc(C#CCC(C(=O)OC)C(=O)OC)cc12
output: Condition met

input: For this compound, is measured composite z-score 0.1 or higher? [N-]=[N+]=NCc1ccccc1[C@H]1OC(c2ccc(OCCCO)cc2)=N[C@@]1(Cc1ccccc1N=[N+]=[N-])C(=O)N1CCOCC1
output: Condition not met
